# Tested on: Saccharomyces cerevisiae
# ASSAY_EXPLANATION: protein stability index of tFT-peptide fusion (C-terminal peptide) (PSI (0-1 scale)); higher = more stable (slower turnover)
# ASSAY_CONTEXT: genetic background: wild type; temperature: 30 C
List of protein stability index values.
Lab note: jot the number down without any unit.

Worked cases, answers included:
>  <CHAIN_SEQUENCE>
NQAIQYANEFQQ [HOG1 C-terminal 12 aa]

>  <protein stability index>
0.715

$$$$
>  <CHAIN_SEQUENCE>
PNVSYIEEKLNQ [MAS1 C-terminal 12 aa]

>  <protein stability index>
0.717

$$$$
>  <CHAIN_SEQUENCE>
TVVDARIDGRGK [PHB2 C-terminal 12 aa]

>  <protein stability index>
0.708

$$$$

Prompt line: Tell me the measured protein stability index of TAPLGKALHDLS [REE1 C-terminal 12 aa] , please.
Response line: 0.72

Prompt line: // next record GFKGFSNKRVKG [MSS18 C-terminal 12 aa]
Response line: 0.696

Prompt line: // next record TMSLLKRNPRNH [TRM44 C-terminal 12 aa]
Response line: 0.683

Prompt line: // next record LKQTVESLIKEL [VPS51 C-terminal 12 aa]
Response line: 0.711

Prompt line: // next record IGIGFGVGIIRE [BUD9 C-terminal 12 aa]
Response line: 0.686

* * *

# Test system: Saccharomyces cerevisiae
# ASSAY_EXPLANATION: protein stability index of tFT-peptide fusion (C-terminal peptide) (PSI (0-1 scale)); higher = more stable (slower turnover)
# ASSAY_CONTEXT: genetic background: wild type; temperature: 30 C
List of protein stability index values.
Lab note: jot the number down without any unit.

Worked cases, answers included:
>  <CHAIN_SEQUENCE>
VPGQRRPSQSPR

>  <TGT>
Saccharomyces cerevisiae

>  <RECORDED_NUMBER>
0.653

$$$$
>  <CHAIN_SEQUENCE>
LLLFSFAALANF

>  <TGT>
Saccharomyces cerevisiae

>  <RECORDED_NUMBER>
0.347

$$$$
>  <CHAIN_SEQUENCE>
QCYNGSSGVSNL

>  <TGT>
Saccharomyces cerevisiae

>  <RECORDED_NUMBER>
0.676

$$$$
>  <CHAIN_SEQUENCE>
SLKPHTCPPRPA

>  <TGT>
Saccharomyces cerevisiae

>  <RECORDED_NUMBER>
0.57

$$$$

Prompt line: Tell me the measured protein stability index of AIPRPPRVWGHL , please.
Response line: 0.727

* * *

# System: Saccharomyces cerevisiae
# ASSAY_EXPLANATION: protein stability index of tFT-peptide fusion (C-terminal peptide) (PSI (0-1 scale)); higher = more stable (slower turnover)
# ASSAY_CONTEXT: genetic background: wild type; temperature: 30 C
QUANTITY_NAME: protein stability index
Lab note: jot the number down without any unit.

>  <CHAIN_SEQUENCE>
VVPLTPPLSAPR

>  <TGT>
Saccharomyces cerevisiae

>  <protein stability index>
0.68

$$$$
>  <CHAIN_SEQUENCE>
TLCFRLSWVLLV

>  <TGT>
Saccharomyces cerevisiae

>  <protein stability index>
0.0528

$$$$
>  <CHAIN_SEQUENCE>
PLPSPSSSSSPI

>  <TGT>
Saccharomyces cerevisiae

>  <protein stability index>
0.674

$$$$
>  <CHAIN_SEQUENCE>
KIKGVKEEIVKM

>  <TGT>
Saccharomyces cerevisiae

>  <protein stability index>
0.686

$$$$
>  <CHAIN_SEQUENCE>
LLIYIPLFEWAR

>  <TGT>
Saccharomyces cerevisiae

>  <protein stability index>
0.526

$$$$

Below: the item to evaluate.
Prompt line: Tell me reported protein stability index for WFVVRGGLSPGG , tested with Saccharomyces cerevisiae.
Response line: 0.695

* * *

# Tested on: Saccharomyces cerevisiae
# ASSAY_EXPLANATION: protein stability index of tFT-peptide fusion (C-terminal peptide) (PSI (0-1 scale)); higher = more stable (slower turnover)
# ASSAY_CONTEXT: genetic background: wild type; temperature: 30 C
Answer class 0 if protein stability index is under 0.7, and class 1 if it is 0.7 or more.

Example results:
>  <CHAIN_SEQUENCE>
VLVTWLESVGGL

>  <ASSIGNED_CLASS>
class 0

$$$$
>  <CHAIN_SEQUENCE>
SSRVWPRRRSTA

>  <ASSIGNED_CLASS>
class 0

$$$$
>  <CHAIN_SEQUENCE>
PSSVRPFDPLLC

>  <ASSIGNED_CLASS>
class 1

$$$$

Prompt line: Decide: is the reported value of protein stability index for GYRKREMRGELQ equal to or greater than 0.7?
Response line: class 0

Prompt line: // next record VRTLGPLRPEGL
Response line: class 1

* * *

List of protein stability index values.
# Test system: Saccharomyces cerevisiae
# ASSAY_EXPLANATION: protein stability index of tFT-peptide fusion (C-terminal peptide) (PSI (0-1 scale)); higher = more stable (slower turnover)
# ASSAY_CONTEXT: genetic background: wild type; temperature: 30 C
Lab note: jot the number down without any unit.

>  <CHAIN_SEQUENCE>
VSHCLLRAFSDC

>  <QUANTITY_NAME>
protein stability index

>  <RECORDED_NUMBER>
0.556

$$$$

Prompt line: Tell me reported protein stability index for LRSQDFKGHLRT , tested with Saccharomyces cerevisiae.
Response line: 0.661

Prompt line: // next record REKDMIKSGIKS
Response line: 0.724

* * *

# Tested on: Saccharomyces cerevisiae
# ASSAY_EXPLANATION: protein stability index of tFT-peptide fusion (C-terminal peptide) (PSI (0-1 scale)); higher = more stable (slower turnover)
# ASSAY_CONTEXT: genetic background: wild type; temperature: 30 C
QUANTITY_NAME: protein stability index
Lab note: jot the number down without any unit.

Worked cases, answers included:
>  <CHAIN_SEQUENCE>
NVYRLTLMIFRL [YMR013W-A C-terminal 12 aa]

>  <protein stability index>
0.249

$$$$
>  <CHAIN_SEQUENCE>
NYPELPRLTFST [RFU1 C-terminal 12 aa]

>  <protein stability index>
0.691

$$$$
>  <CHAIN_SEQUENCE>
DITYDDYKSIDF [SUT1 C-terminal 12 aa]

>  <protein stability index>
0.703

$$$$
>  <CHAIN_SEQUENCE>
RMYTRHKTSFPL [YAL042C-A C-terminal 12 aa]

>  <protein stability index>
0.664

$$$$
>  <CHAIN_SEQUENCE>
IRDAKFCDKHED [BOR1 C-terminal 12 aa]

>  <protein stability index>
0.671

$$$$
>  <CHAIN_SEQUENCE>
SVENIFMIWFFY [YJL022W C-terminal 12 aa]

>  <protein stability index>
0.494

$$$$
>  <CHAIN_SEQUENCE>
LTILRISELSMN [MRPL49 C-terminal 12 aa]

>  <protein stability index>
0.354

$$$$
>  <CHAIN_SEQUENCE>
RAHITKQKKKGY [SDA1 C-terminal 12 aa]

>  <protein stability index>
0.664

$$$$

Below: the item to evaluate.
Prompt line: Tell me reported protein stability index for DNNTVTANPTAR [YJR012C C-terminal 12 aa] , tested with Saccharomyces cerevisiae.
Response line: 0.652

* * *

# System: Saccharomyces cerevisiae
# ASSAY_EXPLANATION: protein stability index of tFT-peptide fusion (C-terminal peptide) (PSI (0-1 scale)); higher = more stable (slower turnover)
# ASSAY_CONTEXT: genetic background: cdc34-1; temperature: 37 C
QUANTITY_NAME: protein stability index
Lab note: jot the number down without any unit.

Worked cases, answers included:
>  <CHAIN_SEQUENCE>
PPPPPPLPSPSS

>  <protein stability index>
0.664

$$$$
>  <CHAIN_SEQUENCE>
ILHRRCGLLLQI

>  <protein stability index>
0.47

$$$$
>  <CHAIN_SEQUENCE>
VVWVYSMLFSIW

>  <protein stability index>
0.19

$$$$
>  <CHAIN_SEQUENCE>
VVVCSLVPLFVL

>  <protein stability index>
0.309

$$$$
>  <CHAIN_SEQUENCE>
VPSMSIVWCRVL

>  <protein stability index>
0.383

$$$$

Prompt line: Tell me the measured protein stability index of RKFRAWIRITRT , please.
Response line: 0.627

Prompt line: // next record LSAVISLRIQLS
Response line: 0.595

Prompt line: // next record LEYCLATYLSAC
Response line: 0.338

Prompt line: // next record RGYSAIWGCKMN
Response line: 0.619

Prompt line: // next record FFVLGPVVMSIH
Response line: 0.278

Prompt line: // next record WYVRVYVLSVES
Response line: 0.136

Prompt line: // next record PSFSLLRSLTLI
Response line: 0.608
